- measurement_parameters: human gut metagenome, 24 h, 2 µM; further: call rule not given here
reported_endpoint: Bacterial Biotransformation

Sample answers from the record:
Cc1ccc(S(=O)(=O)NC(=O)NN2CC3CCCC3C2)cc1 (stereo not drawn) [GLICLAZIDE]    Compound metabolized
CCCc1nn(C)c2c(=O)[nH]c(-c3cc(S(=O)(=O)N4CCN(C)CC4)ccc3OCC)nc12.O=C(O)CC(O)(CC(=O)O)C(=O)O [SILDENAFIL CITRATE]    Compound NOT metabolized
OC(Cn1cncn1)(Cn1cncn1)c1ccc(F)cc1F    Compound NOT metabolized
Cc1ccccc1N1C(=O)c2cc(S(N)(=O)=O)c(Cl)cc2NC1C (stereo not drawn)    Compound metabolized
O=C1[C@H](CC[C@H](O)c2ccc(F)cc2)[C@@H](c2ccc(O)cc2)N1c1ccc(F)cc1    Compound NOT metabolized
Cc1ccc(-c2nc3ccc(C)cn3c2CC(=O)N(C)C)cc1    Compound NOT metabolized
CN(C(=O)CN(CCO)CC(=O)N(C)C(C)(C)Cc1ccccc1)C(C)(C)Cc1ccccc1    Compound metabolized

Query: Could you share which Bacterial Biotransformation value was measured for Br.CN(C)CCCC1(c2ccc(F)cc2)OCc2cc(C#N)ccc21 (stereo not drawn) [CITALOPRAM HYDROBROMIDE] ?
Result: Compound NOT metabolized
